# assay_info: NCI Yeast Anticancer Drug Screen. Data for the mec2-1 strain (AID 157)
# details: S. cerevisiae mec2-1 strain, at 50.0 µM, active compounds read high
The panel holds about 79,000 compounds, 15% with a hit somewhere; the sample as a whole holds those more often.
quantity_name: growth inhibition (%)
# output: bare number, implied unit %

compound	growth inhibition / %
CC1(C)OC2OC(C3COS(=O)O3)C(Cl)C2O1 (stereo not drawn)	2.45
C=C1CC2(C)C(=O)CCCC2OC1=O (stereo not drawn)	-0.85
N=C1N=Nc2nc(CC(=O)c3ccc(Cl)cc3Cl)c(O)n21	-8.35
C=CCCCCC1CCC2CCC(CCCCC=C)N12 (stereo not drawn)	28.4
CCC(=O)c1ccc(OC(C)=O)cc1	-4.75
CCOC(=O)N(C)Cc1ccc(Cl)cc1	-1.1
CN=C(Nc1cccc(C(F)(F)F)c1)SCc1ccc(N=C=S)cc1	28.3
CCCCCCCCCCCCCCCC1CCCC2CCCCC12 (stereo not drawn)	9.25
O=C(OC1CCCC1)C1(O)CCCCC1	12.7
Cc1ccc(Cl)cc1NC(=O)C(Br)C(Br)C(=O)O (stereo not drawn)	99.4

O=C1CCC(O)=C1O has a reported growth inhibition of -11.4

CCN(CC)C(=S)N=N/C(C)=C1/C=CC=CN1O has a reported growth inhibition of 0.4

CCOC(=O)/C=C/c1cccc(F)c1 has a reported growth inhibition of -5.25

###

# assay_info: NCI Yeast Anticancer Drug Screen. Data for the mec2-1 strain (AID 157)
# details: S. cerevisiae mec2-1 strain, at 50.0 µM, active compounds read high
Compounds without any hit were thinned out: in the full panel of roughly 79,000, 15% have a hit.
quantity_name: growth inhibition (%)
# output: bare number, implied unit %

Before answering, review these 3 worked examples.
compound	growth inhibition [%]
CC(=O)Nc1ccccc1/C=C\c1ccccn1	-9.85
O=C(O)Cc1cccc(C(=O)O)c1	-8
CCCCCCCCCCCCCCCCCCCCCC(=O)O	-21.4

CC1OC(OC2C(OC(=O)[C@@H]3CC(C)(C)C[C@H]4C5=CC[C@@H]6[C@@]7(C)C[C@H](O)[C@H](OC8OC(CO)C(O)C(O)C8O)[C@@](C)(CO)[C@@H]7[C@H](O)C[C@@]6(C)[C@]5(C)CC[C@@]34C)OCC(O)C2O)C(O)C(O)C1O (stereo partly specified) has a reported growth inhibition of -20.7

COc1cc2c(cc1OC)NC(C)=CC(C)=N2 has a reported growth inhibition of 5.1

C=C1C(=O)OC2/C=C(/CO)C3(O)CC(O)C(C)(CC(OC(=O)/C(C)=C/C)C12)O3 (stereo unspecified) has a reported growth inhibition of -13.9

CC(C)N(C(=O)C12C3C4C1(I)C1C2C3(I)C41C(=O)N(C(C)C)C(C)C)C(C)C (stereo unspecified) has a reported growth inhibition of 23.1

Cc1ccc(S(=O)(=O)OC2CCCCCCCCCCC2=O)cc1 (stereo unspecified) has a reported growth inhibition of 6.1

Cc1nn(C(=O)c2ccc(Cl)cc2)c2c1C(c1ccccc1[N+](=O)[O-])SC(N)=N2 (stereo unspecified) has a reported growth inhibition of -1.5

O=C(Oc1c(Br)cc(Br)cc1C(=O)Oc1ccccc1)C(=O)Oc1c(Br)cc(Br)cc1C(=O)Oc1ccccc1 has a reported growth inhibition of 23.9

###

# assay_info: NCI Yeast Anticancer Drug Screen. Data for the mec2-1 strain (AID 157)
# details: S. cerevisiae mec2-1 strain, at 50.0 µM, active compounds read high
The panel holds about 79,000 compounds, 15% with a hit somewhere; the sample as a whole holds those more often.
quantity_name: growth inhibition (%)
# output: bare number, implied unit %

Before answering, review these 10 worked examples.
molecule	growth inhibition [%]
O=C(O)C1(C(=O)O)CCN(S(=O)(=O)c2ccccc2)CC1	-10.9
O=C1NCCN(CCc2ccccc2)C1c1ccccc1 (stereo not drawn)	0.95
CCN(CC)CC1CCCCN1CC(=O)N1c2ccccc2NC(=O)c2ccccc21 (stereo not drawn)	-3.25
CCc1c(Cc2[nH]c(C=O)c(C)c2CC)[nH]c(C=O)c1C	-11.9
CC(C)C(=O)Oc1cc2c(=O)oc3c(OC(=O)C(C)C)c(OC(=O)C(C)C)cc4c(=O)oc(c1OC(=O)C(C)C)c2c34	12.6
CCOC(=O)/C(C#N)=C/NCC1CC1	-33.5
CC1CCC2C(C(=O)O[C@H]3C4CCO[C@@H](OC5OC(CO)C(O)C(O)C5O)C4[C@@]4(CO)O[C@@H]34)=CO[C@@H](OC3OC(CO)C(O)C(O)C3O)C12 (stereo partly drawn)	-9.6
COc1ccc(S(=O)(=O)N/N=C/c2cccc([N+](=O)[O-])c2O)cc1	-3.7
CCCCCC(=O)O	-7.1
Cc1cccc2c1C(=O)OC2(c1cccc2ccccc12)c1cccc2ccccc12	3.9

C#CCN(Cc1ccc2nc(-c3ccccc3)c(Cl)nc2c1)c1ccc(Cl)c(Cl)c1 has a reported growth inhibition of -6.4

NC(N)=NCc1ccc2c(c1)OCO2 has a reported growth inhibition of -2.95

CCOC(=O)Nc1cc2c(c(N)n1)N=C(c1ccc(Cl)cc1Cl)CN2 has a reported growth inhibition of -29.5

###

# assay_info: NCI Yeast Anticancer Drug Screen. Data for the mlh1 rad18 strain (AID 175)
# details: S. cerevisiae mlh1 rad18 strain growth inhibition; at 50.0 µM; active compounds read high
This is part of a sample that, as a whole, favours compounds with a hit. Of some 79,000 tested, about 15% had one in any assay.
quantity_name: growth inhibition (%)
# output: bare number, implied unit %

compound	growth inhibition, %
COc1ccc(C(C)OC)cc1OC (configuration not stated)	-8.75
CCCCC#CCN(CCCC)CCCC	-29
CC(C)(C#N)OC(=O)Nc1cccc(Cl)c1	-26.8
C=CCOc1c(C)cc(C(N)=O)cc1C	51.4
Cn1c(=O)c2c(nc(N/N=C/c3ccccc3C(=O)O)n2C)n(C)c1=O	-15.3
CCC1(C)OC(C)CC(C)(C)O1 (configuration not stated)	0

O=NN(CCCl)C(=O)/N=N/C(=O)N(CCCl)N=O has a reported growth inhibition of 20

OC(CBr)CBr has a reported growth inhibition of 9.9

Cc1ccc(S(=O)(=O)N2CN(S(=O)(=O)c3ccc(C)cc3)CN(S(=O)(=O)c3ccc(C)cc3)C2)cc1 has a reported growth inhibition of -24.8

Cc1cccc2c1C(=O)C1(Cc3ccccc3C1=O)C2 (configuration not stated) has a reported growth inhibition of -3.2

N#CSCC(Cl)=CCl (mixture of isomers) has a reported growth inhibition of -19.6

CC[N+](C)(CC)CCl has a reported growth inhibition of -1.65

CCOC(=S)SC1OC(COC(C)=O)C(OC(C)=O)C(OC(C)=O)C1OC(C)=O (configuration not stated) has a reported growth inhibition of 10.7

Cc1cc(C)cc(NC(N)=S)c1 has a reported growth inhibition of 11.7

O=c1c(SCc2ccccc2Cl)c(SCc2ccccc2Cl)cnn1-c1ccccc1 has a reported growth inhibition of 1.45

Cc1cc(-n2cnc3c(Cl)ncnc32)ccc1N has a reported growth inhibition of -9.1

Nc1ccc(C(=O)O)cc1Cl has a reported growth inhibition of -22.2

NC(=O)c1cc(Br)ccc1O has a reported growth inhibition of 17.2

###

# assay_info: NCI Yeast Anticancer Drug Screen. Data for the sgs1 mgt1 strain (AID 161);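 further: 0% = growth of cultures given vehicle only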
# details: S. cerevisiae sgs1 mgt1 strain, at 50.0 µM, active compounds read high
The panel holds about 79,000 compounds, 15% with a hit somewhere; the sample as a whole holds those more often.
quantity_name: growth inhibition (%)
# output: bare number, implied unit %

Before answering, review these 5 worked examples.
compound	growth inhibition (%)
OC(c1ccc(Cl)cc1)c1nc2ccccc2[nH]1 (stereo unspecified)	35.5
C(=N\N1CCN(/N=C/c2c[nH]c3ccccc23)CC1)/c1c[nH]c2ccccc12	-12.8
Clc1cc(Cc2cc(Cl)c(Cl)c3c2OCOC3)c2c(c1Cl)COCO2	-5
COc1ccccc1C(OC)c1ccccc1C(=O)O (stereo unspecified)	-1.4
O=C(/C=C/C(=O)c1ccc(O)cc1)Oc1ccccc1	1.1

We next turn to a different compound, shown below.
CC/C(=C(\CC)c1ccc(OC2C=CCCC2)cc1)c1ccc(OC2C=CCCC2)cc1 (stereo unspecified) has a reported growth inhibition of 7

###

# assay_info: NCI Yeast Anticancer Drug Screen. Data for the mec2-1 strain (AID 157)
# details: S. cerevisiae mec2-1 strain, at 50.0 µM, active compounds read high
About 79,000 compounds went through this panel and 15% of them were active in at least one assay; those are over-represented in the sample as a whole.
We begin with a simple list: items and their reported growth inhibition.
# output: bare number, implied unit %

Before answering, review these 5 worked examples.
compound	growth inhibition (%)
Cc1cc(OCCCCCCC[N+](C)(C)Cc2ccc([N+](=O)[O-])o2)c(C(C)C)cc1Cl	99.8
CCOC(=O)c1cc(C=O)nc2c(Cl)cc(Cl)cc12	6.25
O=C1OCC/C1=C\c1cccc2ccccc12	2.4
C/C(=N\N=C(N)N)C(CN(CC(C)C)CC(C)C)C(=O)Nc1ccc(C)cc1C (stereo unspecified)	6.55
CCN(CC)c1ccc(/C=C(\C)c2nc3ccc(Cl)cc3[nH]2)cc1	6.6

We next turn to a different compound, shown below.
COC(=O)N/N=C/c1ccccc1Cl has a reported growth inhibition of -31
